target: T1, Kv1.1 alpha subunit T1 domain binding to Kvbeta1 subunits (Rattus norvegicus, UniProt P63144); test: Kv1.x T1 / Kvbeta subunit protein-protein interaction assay (ELISA); conditions: His-/FLAG-tagged Kv1.1 T1 domain lysate; biotin-tagged Kvbeta1 immobilised on streptavidin plates; anti-FLAG/HRP ELISA detection; read-out: IC50 for inhibition of Kv1.1 alpha subunit T1 binding to Kvbeta1 subunits
T1 construct: expression of Kv1.1 alpha subunit T1 domains in E. coli; His
T1 sequence (P63144 whole entry, the tested form may be a part): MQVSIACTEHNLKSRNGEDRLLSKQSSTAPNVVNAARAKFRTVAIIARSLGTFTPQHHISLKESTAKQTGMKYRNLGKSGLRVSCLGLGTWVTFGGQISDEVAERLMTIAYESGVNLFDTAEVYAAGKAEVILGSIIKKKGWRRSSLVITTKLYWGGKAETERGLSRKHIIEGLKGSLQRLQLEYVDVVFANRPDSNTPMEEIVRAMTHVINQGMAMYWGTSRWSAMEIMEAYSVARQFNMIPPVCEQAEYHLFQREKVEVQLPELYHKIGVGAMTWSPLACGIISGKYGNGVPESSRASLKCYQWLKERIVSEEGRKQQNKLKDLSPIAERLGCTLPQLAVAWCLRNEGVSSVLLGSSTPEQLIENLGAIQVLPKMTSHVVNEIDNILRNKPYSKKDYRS
Okay, here is how we bin by IC50: Low: < 40 µM; Medium: ≥ 40 µM and < 80 µM; High: ≥ 80 µM

Assign a category based on measured IC50 for `O=C(Nc1ccc2c(c1)CCN(C(=O)NS(=O)(=O)c1ccc(F)cc1)CC2)NS(=O)(=O)c1ccc(F)cc1` and give only the class name.
High

Assign a category based on measured IC50 for `Cc1ccc(S(=O)(=O)NC(=O)Nc2ccc3c(c2)CCN(C(=O)NS(=O)(=O)c2ccc(C)cc2)C3)cc1` and give only the class name.
Low

Assign a category based on measured IC50 for `Cc1ccc(S(=O)(=O)NC(=O)Nc2ccc3c(c2)CN(C(=O)NS(=O)(=O)c2ccc(C)cc2)C3)cc1` and give only the class name.
Low

Assign a category based on measured IC50 for `COc1ccc(S(=O)(=O)NC(=O)Nc2ccc3c(c2)CCN(C(=O)NS(=O)(=O)c2ccc(OC)cc2)CC3)cc1` and give only the class name.
Low

Assign a category based on measured IC50 for `Cc1ccc(S(=O)(=O)NC(=O)Nc2ccc3c(c2)CCN(C(=O)NS(=O)(=O)c2ccc(C)cc2)CC3)cc1` and give only the class name.
Medium

Assign a category based on measured IC50 for `Cc1ccc(S(=O)(=O)NC(=O)N2CCc3ccc(NS(=O)(=O)c4ccc(-c5ccccc5)cc4)cc3CC2)cc1` and give only the class name.
High

Assign a category based on measured IC50 for `Cc1cccc(S(=O)(=O)NC(=O)Nc2ccc3c(c2)CCN(C(=O)NS(=O)(=O)c2cccc(C)c2)CC3)c1` and give only the class name.
Medium

Assign a category based on measured IC50 for `O=C(Nc1ccc2c(c1)CCN(C(=O)NS(=O)(=O)c1ccccc1Cl)CC2)NS(=O)(=O)c1ccccc1Cl` and give only the class name.
High

Assign a category based on measured IC50 for `O=C(Nc1ccc2c(c1)CCN(C(=O)NS(=O)(=O)c1ccc(Cl)cc1)CC2)NS(=O)(=O)c1ccc(Cl)cc1` and give only the class name.
Medium
